# assay.target: Ba/F3 cells transformed with human Tel-TrkA (Homo sapiens, UniProt P04629)
# Construct: expressed in transfected cells; host or cells: Ba/F3 murine hematopoietic progenitor cells (luciferase expressing); the other entry of the earlier key: ETV6 (P41212, Transcription factor ETV6)
# Sequence (P04629 510-796 limits assumed): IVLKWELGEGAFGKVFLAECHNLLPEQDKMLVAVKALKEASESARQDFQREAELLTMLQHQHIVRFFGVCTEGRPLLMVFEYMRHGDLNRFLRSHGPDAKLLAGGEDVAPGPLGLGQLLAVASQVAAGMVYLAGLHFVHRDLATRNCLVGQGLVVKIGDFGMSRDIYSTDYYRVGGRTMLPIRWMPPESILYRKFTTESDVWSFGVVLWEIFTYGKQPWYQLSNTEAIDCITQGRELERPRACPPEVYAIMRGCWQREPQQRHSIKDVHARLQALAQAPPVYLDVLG
# protocol.text: Proliferation of Ba/F3 cells transformed with human Tel-TrkA (Ba/F3 Tel-TrkA)
# Format: cell-based
# settings: Table 1; 48 hours, Bright Glo luminescence; read-out: Ba/F3 Tel-TrkA
readout.label: IC50 (µM)

I = N#Cc1cnc2ccc(N3CCC[C@@H]3c3cccc(F)c3)nn12
II = O=C(NC1CCCOC1)c1cnc2ccc(N3CCC[C@@H]3c3cccc(F)c3)nn12 (stereo partly drawn)
III = CCOC(=O)c1cnc2ccc(N3C[C@@H](F)C[C@@H]3c3cc(F)cc(C#N)c3)nn12
Problem: Arrange these 3 molecules in increasing order of IC50. // list labels; follow requested order
Result: III, II, I
(III: 0.002 µM, II: 0.008 µM, I: 0.268 µM)

P = CCOC(=O)c1cnc2ccc(N3C[C@H](F)C[C@H]3c3cccc(F)c3)nn12
Q = O=C(NC[C@H]1CCCO1)c1cnc2ccc(N3CCC[C@@H]3c3cccc(F)c3)nn12
R = CCOC(=O)c1cnc2ccc(N3C[C@H](O)C[C@@H]3c3cccc(F)c3)nn12
Problem: Sort these molecules on IC50 so the largest reading comes first. Rank the items, then write their labels in that order.
Result: P, R, Q
(P: 0.314 µM, R: 0.073 µM, Q: 0.03 µM)
